Where do the numbers come from? From ChEMBL document CHEMBL4819012.

- Test system: NCI-H460
- Test: Antiproliferative activity against human NCI-H460 cells assessed as cell viability measured after 72 hrs by MTS method
- Type: functional, cell-based
- Condition Details: NCI-H460, 72 h
pIC50: −log10 of the molar value.
Property Label: pIC50

COc1ccc(S(=O)(=O)Nc2cccnc2-c2ccc(C#N)cc2)cc1; 5.83
COc1ccc(S(=O)(=O)Nc2cccnc2Nc2ccc(O)cc2)cc1; 5.69

---

- Test system: BT-474
- Test: Antiproliferative activity against human BT-474 cells assessed as cell viability measured after 72 hrs by MTS method
- Assay type: functional, cell-based
- Condition Details: BT-474, 72 h
pIC50: −log10 of the molar value.
Property Label: pIC50

COc1ccc(S(=O)(=O)Nc2cccnc2-c2ccc(C#N)cc2)cc1; 5.87

1: COc1ccc(S(=O)(=O)Nc2cccnc2Nc2ccc(O)cc2)cc1
2: COc1ccc(S(=O)(=O)Nc2cccnc2-c2ccc(C#N)c(F)c2)cc1
Form field 'greater pIC50' accepts 1 or 2 ; which applies? Identify your selection by its label.
2

---

- System: SGC-7901
- Test: Antiproliferative activity against human SGC-7901 cells assessed as cell viability measured after 72 hrs by MTS method
- Type: functional, cell-based
- Condition Details: SGC-7901, 72 h
Property Label: IC50 (nM)

COc1ccc(S(=O)(=O)Nc2cccnc2Nc2ccc(O)cc2)cc1; 738
COc1ccc(S(=O)(=O)Nc2cccnc2-c2ccc(C#N)c(F)c2)cc1; 617

---

- Test system: PLC-PRF-5
- Test: Antiproliferative activity against human PLC-PRF-5 cells assessed as cell viability measured after 72 hrs by MTS method
- Assay type: functional, cell-based
- Condition Details: PLC-PRF-5, 72 h
Property Label: pIC50
Answer as the number alone; pIC50 is minus log10 of concentration in mol/L.

The examples below pair each entry with its known result.
COc1ccc(S(=O)(=O)Nc2cccnc2-c2ccc(C#N)cc2)cc1; 6.09
COc1ccc(S(=O)(=O)Nc2cccnc2-c2ccc([N+](=O)[O-])cc2)cc1; 5.28

# ---- query compound ----
Recorded pIC50 (compound COc1ccc(S(=O)(=O)Nc2cccnc2Nc2ccc(O)cc2)cc1 ): 6.10

---

- Tested on: NCI-H460
- Test: Antiproliferative activity against human NCI-H460 cells assessed as cell viability measured after 72 hrs by MTS method
- Format: functional, cell-based
- Condition Details: NCI-H460, 72 h
Each entry below lists one item and its recorded IC50 value.

The examples below pair each entry with its known result.
COc1ccc(S(=O)(=O)Nc2cccnc2-c2ccc([N+](=O)[O-])cc2)cc1; > 10 µM
COc1ccc(S(=O)(=O)Nc2cccnc2-c2ccc(C(F)(F)F)cc2)cc1; > 10 µM

# ---- query compound ----
Recorded IC50 (compound COc1ccc(S(=O)(=O)Nc2cccnc2-c2ccccc2)cc1 ): > 10 µM

---

- Tested on: BT-474
- Test: Antiproliferative activity against human BT-474 cells assessed as cell viability measured after 72 hrs by MTS method
- Format: functional, cell-based
- Condition Details: BT-474, 72 h
pIC50: −log10 of the molar value.
Property Label: pIC50

The examples below pair each entry with its known result.
COc1ccc(S(=O)(=O)Nc2cccnc2-c2ccc(C(F)(F)F)cc2)cc1; < 5.00
COc1ccc(S(=O)(=O)Nc2cccnc2-c2ccccc2)cc1; < 5.00

# ---- query compound ----
Recorded pIC50 (compound COc1ccc(S(=O)(=O)Nc2cccnc2-c2ccc([N+](=O)[O-])cc2)cc1 ): < 5.00
